Entry source: ChEMBL document CHEMBL1201862

Tested on: MDA-N
measurement-notes: NCI tumour cell line growth inhibition, 48 h
Calls of active or inactive are those of the source. Cut-off read from the data, not from the text of the source: active = GI50 up to about 1.1 µM and inactive = higher.
Possible outcomes: active, inactive

| compound | measurement-target | cat |
| --- | --- | --- |
| CCC1c2[nH]c3ccccc3c2C[C@H]2C(=O)NC(CCC(=O)OC(C)(C)C)C(=O)N12 (some centres not stated) | MDA-N | inactive |
| C/C=C(\C)c1cc(=O)c2c(C)cc3c(c2o1)C(OC)(OC(C)=O)c1c(O)c(C2CC(C)(N(C)C)C(OC(C)=O)C(C)O2)cc(C2CC(N(C)C)C(OC(C)=O)C(C)O2)c1C3=O (configuration not stated) | MDA-N | inactive |
| Nc1c(O)c(C(=O)O)cc2ccccc12 | MDA-N | inactive |
| COc1cccc([C@@H]2CC(=O)c3cc4c(cc3N2)OCO4)c1 | MDA-N | inactive |
| CC(C)(Oc1ccc(Cl)cc1)C(=O)N(C(=O)N1CCN(c2ccccc2)CC1)c1ccccc1 | MDA-N | inactive |
| CN(Nc1cc(=O)[nH]c(=O)[nH]1)c1ccccc1 | MDA-N | inactive |
| CCOC(=O)c1cc2c3c(c(C(C)=O)c(O)c2[nH]1)N(C(C)=O)CC3 | MDA-N | inactive |
| COc1ccc(NCc2c(O)ccc3ccccc23)cc1 | MDA-N | inactive |
| c1ccc(-c2cc(-c3cccs3)c(-c3cccs3)o2)cc1 | MDA-N | inactive |
| O=C(/C=C/c1cccs1)c1ccc(Cl)s1 | MDA-N | inactive |
| Cc1ccc(C)n1-n1c(Cc2ccc(Cl)cc2)n[nH]c1=O | MDA-N | inactive |
| COC(=O)c1ccccc1CC(Cc1ccc2c(c1)CCC2)C(=O)OC (configuration not stated) | MDA-N | inactive |
| CCOC(=O)c1cnn2c1ncc1c(=O)n(NC(N)=O)ccc12 | MDA-N | inactive |
| Cc1c2ncccc2cc2oc3ccccc3c(=O)c12 | MDA-N | inactive |
| Cc1cc(-c2c(F)cc3c4nn([C@H]5CC[C@@H](N(C)C)CC5)c(=O)c-4cn(C4CC4)c3c2F)cc(C)n1 | MDA-N | inactive |
| C[S+]([O-])c1ncc2c(n1)-c1ccccc1OC2 (configuration not stated) | MDA-N | inactive |
| CSCCCS/C1=C/CCCCCCCCCC1 | MDA-N | inactive |
| COc1ccc(/N=N/C(=O)NC(Cc2ccccc2)C(=O)O)cc1 (configuration not stated) | MDA-N | inactive |
| COc1cc2c(c(OC)c1OC)-c1ccc(SC)c(=O)cc1C(NC(=O)c1ccccc1)CC2 (configuration not stated) | MDA-N | active |
| CC(=O)C1C(=O)C(=O)N(c2ccccc2)C1=O (configuration not stated) | MDA-N | inactive |
| O=C(c1ccncc1)C1C(=O)c2ccccc2C1C1(O)c2ccccc2CC1C(O)c1ccncc1 (configuration not stated) | MDA-N | inactive |
| CNc1ccc(Cl)cc1S(=O)(=O)c1ccccc1[N+](=O)[O-] | MDA-N | inactive |

====

Item-by-item account of GI50
Test system: T47D
measurement-notes: NCI tumour cell line growth inhibition, 48 h
The source made the active and inactive calls. No stated cut-off is given here; in the data, active = GI50 up to about 1.1 µM and inactive = higher.

| compound | measurement-target | GI50 |
| --- | --- | --- |
| CC(C)(C)OC(=O)N1CCC(C(=O)O)CC1 | T47D | > 100 µM (inactive) |
| COc1cc2nc(-c3cccs3)nc(Nc3cccc(Cl)c3)c2cc1OC | T47D | 44.6 µM (inactive) |
| O=C1C=C(NCCc2ccccc2)c2ccccc2C1=O | T47D | 16.7 µM (inactive) |
| O=C(/C=C1\Sc2ccccc2N=C1CC(=O)c1ccccc1)c1ccccc1 | T47D | 6.98 µM (inactive) |
| Cc1cc(O)c2c(c1)C(=O)C(c1c(C)cc3c(c1O)C(=O)C1OC1C3=O)=CC2=O (stereo not given) | T47D | 1.98 µM (inactive) |
| COc1cc(OC)c(C2c3cc4c(cc3OC(N3CCOCC3)C2C)OCO4)c(OC)c1 (stereo not given) | T47D | 17.7 µM (inactive) |
| COC1C(OC(C)=O)CC(=O)OC(C)C/C=C/C=C\C(O)C(C)CC(CC=O)C1OC1OC(C)C(OC2CC(C)(O)C(OC(=O)CC(C)C)C(C)O2)C(N(C)C)C1O (stereo not given) | T47D | > 100 µM (inactive) |
| C[S+]([O-])c1ncc2c(n1)-c1ccccc1OC2 (stereo not given) | T47D | 35.2 µM (inactive) |
| O=C(NCCc1ccccn1)c1ccc2cc(C(=O)N3CC(CCl)c4ccc([N+](=O)[O-])cc43)[nH]c2c1 (stereo not given) | T47D | > 100 µM (inactive) |
| C=C1C(=O)OC2/C=C(\CO)C3OC3C3OC3(C)CC(OC(=O)/C(=C/C)COC(C)=O)C12 (stereo not given) | T47D | 3.01 µM (inactive) |
